- Test system: HOP-92 NSCLC
- Assay Method Text: NCI-60 one-dose screen, 48 h
- Particulars: 10 µM
This is part of a sample that, as a whole, favours compounds with a hit. Of some 83,000 tested, about 20% had one in any assay. The source made the active and inactive calls. Rule for the calls: active = growth percent below 10; inactive = the rest.
Outcomes: label 1 = active, label 0 = inactive

[[record]]
mol = "COc1cc(Cn2c(C(F)(F)F)cc3c(Cl)ncnc32)ccn1"
answer_label = "label 0"

[[record]]
mol = "COc1ccc2nc(Cl)c(-c3cc(-c4ccccc4)nc(N)n3)cc2c1"
answer_label = "label 0"

[[record]]
mol = "Cn1cc(-c2cc(N)n3nc(-c4c[nH]c5ccc(Br)cc45)cc3n2)c2cccnc21"
answer_label = "label 1"

[[record]]
mol = "COC(=O)C[C@](O)(CCCC(C)(C)O)C(=O)O[C@H]1C(OC)=C[C@@]23CCC(=O)N2CCc2cc4c(cc2[C@@H]13)OCO4"
answer_label = "label 0"

[[record]]
mol = "O=C(CS(=O)(=O)c1oc(-c2ccc(Cl)cc2)nc1S(=O)(=O)c1ccccc1)N1CCCC1"
answer_label = "label 1"

[[record]]
mol = "COc1cc(/C=C/C(=O)c2ccc(C(F)(F)F)cc2)ccc1Oc1nc(Nc2ccc(F)cc2)nc(N(C)C)n1"
answer_label = "label 0"

[[record]]
mol = "Cc1noc2c(Cc3ccc([N+](=O)[O-])cc3)nn(CC(=O)N/N=C/c3ccc(Cl)cc3)c(=O)c12"
answer_label = "label 1"

[[record]]
mol = "O=C(CSc1nnc(-c2ccc3nc(-c4ccccc4)[nH]c3c2)o1)Nc1ccc(Cl)cc1"
answer_label = "label 0"

[[record]]
mol = "N#Cc1c(NC(=O)c2ccc(C(F)(F)F)c(Cl)c2)sc2c1CCC(=O)C2"
answer_label = "label 1"


---

- Tested on: SF-295 CNS
- Assay Method Text: NCI-60 one-dose screen, 48 h (100 = growth as untreated, 0 = no growth, -100 = all killed)
- Particulars: 10 µM
About 83,000 compounds went through this panel and 20% of them were active in at least one assay; those are over-represented in the sample as a whole.
Listed here are molecules together with their documented growth.
Assay Readout: growth (%)

[[record]]
molecule = "CN1CCc2c(sc3ncnc(N/N=C/c4ccc5ccccc5c4)c23)C1"
unit_symbol = "%"
result = 53.9

[[record]]
molecule = "CC(=O)Nc1ccc(-n2cnc3cc(-c4ccc(O)cc4)ccc32)cc1C"
unit_symbol = "%"
result = 52.8

[[record]]
molecule = "O=C(O)CCCCCCCCCCN1C(=O)/C(=C/c2cnc(-c3ccccc3)s2)SC1=S"
unit_symbol = "%"
result = 83.3

[[record]]
molecule = "CC(=O)Oc1ccccc1C(=O)Oc1ccc(C(=O)/C=C/c2ccncc2)cc1"
unit_symbol = "%"
result = 59.1

[[record]]
molecule = "COc1ccc(C(=O)Nc2sc3c(c2C#N)CCC(=O)C3)cc1C(F)(F)F"
unit_symbol = "%"
result = -15.4

[[record]]
molecule = "CCN1CCN(c2ccc(NC(=O)Nc3ccc(-c4cc(C(=O)NC)c5ncccc5n4)cc3)cc2C(F)(F)F)CC1"
unit_symbol = "%"
result = -99

[[record]]
molecule = "O=C(Nc1nc2ccc([N+](=O)[O-])cc2s1)Nc1ccccc1I"
unit_symbol = "%"
result = -25.8

[[record]]
molecule = "O=C(Nc1ccc(F)c(Cl)c1)c1cc(-c2ccc(F)cc2F)ccc1O"
unit_symbol = "%"
result = -82.1

[[record]]
molecule = "CCCS(=O)(=O)c1oc(-c2ccc(F)cc2)nc1S(=O)(=O)c1ccc(F)cc1"
unit_symbol = "%"
result = 78.2

[[record]]
molecule = "O=C(Cn1cc(CSc2nnc3oc4ccccc4n23)nn1)Nc1cccc(Cl)c1"
unit_symbol = "%"
result = 66.8

[[record]]
molecule = "CONC[C@]1(C)C=C2C(=O)[C@](C)(O)C3(CC3)C(C)=C2[C@H]1O"
unit_symbol = "%"
result = -9.33

[[record]]
molecule = "COc1ccc2[nH]c(O)c(N=NC(=O)COc3ccc(NC(=O)Nc4ccc(Cl)cc4)cc3)c2c1"
unit_symbol = "%"
result = 14

[[record]]
molecule = "Oc1ccc(/C=C2\\CCCc3cc4ccc(O)cc4[o+]c32)c(O)c1"
unit_symbol = "%"
result = 90.1

[[record]]
molecule = "Cc1ccc(C(=O)Nc2ccc(-n3c(C)nc4c(cnn4-c4ccccc4)c3=O)cc2)cc1"
unit_symbol = "%"
result = 50.6

[[record]]
molecule = "O=C1CCC(N2Cc3cc(CC(=O)Nc4ccc(N5CCCCC5)cc4)ccc3C2=O)C(=O)N1 (centres undefined)"
unit_symbol = "%"
result = 57.4

[[record]]
molecule = "CCCCSc1nc(Nc2ccc(/C(C)=N/NC(N)=S)cc2)c(C#N)c(-c2ccc(F)cc2)n1"
unit_symbol = "%"
result = 28.5

[[record]]
molecule = "COc1ccc(OC)c(-c2cc(-c3c[nH]c4ccccc34)nc(N)c2C#N)c1"
unit_symbol = "%"
result = -69.4

[[record]]
molecule = "O=C(Nc1cccc(-c2cn(-c3ccc4oc(=O)ccc4c3)nn2)c1)Nc1cc(C(F)(F)F)cc(C(F)(F)F)c1"
unit_symbol = "%"
result = -45.7

[[record]]
molecule = "O=C(Nc1ccc(OCc2ccccc2)cc1)Nc1ccc(Cl)c(C(F)(F)F)c1"
unit_symbol = "%"
result = -26.5

[[record]]
molecule = "O=[N+]([O-])c1ccc(-c2nc(-c3ccccc3)c(-c3ccccc3)n2-c2ccc(S(=O)(=O)Nc3ncccn3)cc2)cc1"
unit_symbol = "%"
result = 9.39

[[record]]
molecule = "O=C(NO)c1ccc(Cn2ccc3c(Nc4ccccc4)ncnc32)cc1"
unit_symbol = "%"
result = -67.5

[[record]]
molecule = "COc1cc(/C=C/C(=O)c2ccc(F)cc2)ccc1Oc1nc(Nc2ccc(F)cc2)nc(N(C)C)n1"
unit_symbol = "%"
result = 53.1

[[record]]
molecule = "CC(=O)c1cc(C(=O)N2c3ccccc3Sc3ccccc32)n2ccc(C)cc12"
unit_symbol = "%"
result = 36.5

[[record]]
molecule = "CN1CCN(Cc2ccc(NC(=O)c3cncc(C#Cc4cnc5ccc(N[C@H]6CCOC6)nn45)c3)cc2C(F)(F)F)CC1"
unit_symbol = "%"
result = -98.4

[[record]]
molecule = "COc1ccc(NC(=O)Cn2c(/C=C/c3ccc(N(C)C)cc3)nc3ccccc3c2=O)cc1"
unit_symbol = "%"
result = 49.5

[[record]]
molecule = "CC(=O)c1cc(C(=O)c2ccc3c(c2)NC(=O)CO3)n2ccc3ccccc3c12"
unit_symbol = "%"
result = 98.9

[[record]]
molecule = "COc1ccc2[nH]c(=O)c(CSc3cccc(N)c3)cc2c1"
unit_symbol = "%"
result = 31.2

[[record]]
molecule = "O=C(Cn1nc(-c2ccccc2)ccc1=O)NNC(=S)NC1CCCCC1"
unit_symbol = "%"
result = 101

[[record]]
molecule = "O=c1[nH]c2ccccc2cc1CSc1ccc(Nc2nccc(-c3ccc(C(F)(F)F)cc3)n2)cc1"
unit_symbol = "%"
result = -62.6

[[record]]
molecule = "CN1C(=O)/C(=C/c2ccc3ncsc3c2)NC1=NC12CC3CC(CC(O)(C3)C1)C2"
unit_symbol = "%"
result = 14.1

[[record]]
molecule = "CN(C)c1ccc(/C=C/C(=O)c2ccc(NC(=O)CN3C(=O)NC(C)(c4ccccc4)C3=O)cc2)cc1 (centres undefined)"
unit_symbol = "%"
result = 54.9

[[record]]
molecule = "CC1=C(C(=O)OC(C)C)C(c2ccc(O)cc2)NC(=S)N1 (centres undefined)"
unit_symbol = "%"
result = 96.6

[[record]]
molecule = "Brc1ccc(/C=N/Nc2ncnc3sc4c(c23)CCN(Cc2ccccc2)C4)cc1"
unit_symbol = "%"
result = 58.7

[[record]]
molecule = "O=C1Nc2cc(-c3ccc(NC(=O)c4cccs4)cc3)ccc2/C1=C/c1ccc[nH]1"
unit_symbol = "%"
result = 55.1

[[record]]
molecule = "CO[C@@H]1CSSC1Cn1nc(-c2ccc(Oc3ccccc3)cc2)c2c(N)ncnc21 (some centres undefined)"
unit_symbol = "%"
result = 47.8

[[record]]
molecule = "OCc1[nH]nc2cc(Nc3ncc4ccc(Br)c(OC5CCC(O)CC5)c4n3)ccc12 (centres undefined)"
unit_symbol = "%"
result = -49.8

[[record]]
molecule = "CC1(c2ccccc2)NC(=O)N(CC(=O)Nc2ccc(C(=O)/C=C/c3ccccc3)cc2)C1=O (centres undefined)"
unit_symbol = "%"
result = 50.9

[[record]]
molecule = "CN1CCN(c2ccc(C(=O)/C=C/c3ccc(C#N)cc3)cc2)CC1"
unit_symbol = "%"
result = 78.2

[[record]]
molecule = "O=C1NC(=NC23CC4CC(CC(C4)C2)C3)N/C1=C\\c1ccc2ncccc2n1"
unit_symbol = "%"
result = -27.5


---

- Test system: MDA-MB-468 breast
- Assay Method Text: NCI-60 one-dose screen, 48 h (100 = growth as untreated, 0 = no growth, -100 = all killed)
- Particulars: 10 µM
About 83,000 compounds went through this panel and 20% of them were active in at least one assay; those are over-represented in the sample as a whole.
Assay Readout: growth (%)

[[record]]
mol = "COc1ccc(N(C)c2cc(C#N)nc3ccccc23)cc1/C=C/C(=O)NO"
result = -86.1

[[record]]
mol = "S=c1nc(-c2ccccc2)cc(-c2cc3ccccc3nc2Cl)[nH]1"
result = 66.8

[[record]]
mol = "Clc1ccc(/C=N/Nc2ncnc3sc4c(c23)CCN(Cc2ccccc2)C4)cc1"
result = -62.4

[[record]]
mol = "CCOC(=O)CNC(=O)CN(Cc1ccccc1)C(=O)[C@@]1(C)CCC[C@]2(C)[C@H]3C[C@H]4C(C(C)C)=C[C@]3(CC[C@H]21)[C@@H]1C(=O)OC(=O)[C@@H]14"
result = 48.9


Cited source: PubChem BioAssay (NCI)
